- Target: P2X purinoceptor 7 (Rattus norvegicus)
- Sequence (Q64663 whole entry): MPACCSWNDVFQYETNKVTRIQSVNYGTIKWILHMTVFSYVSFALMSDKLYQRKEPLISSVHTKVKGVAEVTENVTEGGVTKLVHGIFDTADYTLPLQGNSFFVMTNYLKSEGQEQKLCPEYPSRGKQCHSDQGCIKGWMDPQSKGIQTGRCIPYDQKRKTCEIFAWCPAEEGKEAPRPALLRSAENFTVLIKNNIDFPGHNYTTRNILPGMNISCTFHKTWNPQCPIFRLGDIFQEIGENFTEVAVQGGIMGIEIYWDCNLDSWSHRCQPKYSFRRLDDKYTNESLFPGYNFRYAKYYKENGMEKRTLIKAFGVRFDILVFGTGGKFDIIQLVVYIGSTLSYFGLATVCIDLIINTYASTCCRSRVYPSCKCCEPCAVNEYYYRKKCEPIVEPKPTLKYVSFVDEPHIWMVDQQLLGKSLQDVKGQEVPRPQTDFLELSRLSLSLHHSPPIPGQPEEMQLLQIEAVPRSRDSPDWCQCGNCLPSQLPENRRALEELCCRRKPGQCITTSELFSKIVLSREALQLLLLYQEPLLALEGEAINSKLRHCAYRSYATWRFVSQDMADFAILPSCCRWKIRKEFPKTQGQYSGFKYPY
Measurement Label: pIC50
One number for each entry, as −log10 of the molar value.

Entry [3H]c1ccc([C@H](C)N/C(=N/C#N)Nc2cccc3ncccc23)cc1 : reported pIC50 = ?
8.00

* * *

- Target: P2X purinoceptor 7 (Homo sapiens)
- Sequence (Q99572 whole entry): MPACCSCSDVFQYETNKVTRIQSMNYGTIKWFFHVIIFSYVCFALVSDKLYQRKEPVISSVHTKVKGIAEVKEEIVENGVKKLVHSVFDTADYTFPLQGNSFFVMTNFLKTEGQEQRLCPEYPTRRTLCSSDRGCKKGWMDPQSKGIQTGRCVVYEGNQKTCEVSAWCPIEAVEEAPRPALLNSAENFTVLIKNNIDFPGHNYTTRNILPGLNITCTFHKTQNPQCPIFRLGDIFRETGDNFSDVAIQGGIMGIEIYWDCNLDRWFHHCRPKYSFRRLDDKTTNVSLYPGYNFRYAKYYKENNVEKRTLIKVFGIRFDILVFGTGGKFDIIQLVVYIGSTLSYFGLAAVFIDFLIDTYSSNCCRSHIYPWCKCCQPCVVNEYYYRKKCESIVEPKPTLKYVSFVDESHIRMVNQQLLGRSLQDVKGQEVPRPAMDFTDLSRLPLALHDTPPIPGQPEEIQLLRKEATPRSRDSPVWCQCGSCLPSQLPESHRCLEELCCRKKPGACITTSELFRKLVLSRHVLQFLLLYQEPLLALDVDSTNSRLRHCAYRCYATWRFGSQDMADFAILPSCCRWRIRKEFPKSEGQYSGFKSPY
- Assay Procedure: Antagonist activity at human recombinant P2X7 receptor expressed in human THP1 cells assessed as inhibition of BzATP-induced IL1-beta release by enzyme-linked immunosorbent assay
- Assay type: functional, cell-based, THP-1
Measurement Label: IC50

Entry COc1ccc(CC(=O)NC(N/C(=N/C#N)Nc2cccc3ncccc23)C(C)(C)C)cc1OC (stereo unspecified) : reported IC50 = ?
156 nM
